# target.or.test.system: Cyclin-dependent kinase 2/cyclin E (Homo sapiens) (UniProt P24864+P24941+O96020)
# measurement.context: at 10 µM
Values of residual activity greater than or equal to 60% map to Criterion met; values below map to Criterion not met.

Below, 5 compounds whose answers are already recorded.
compound | target.or.test.system | class.name
Oc1c2ccccc2c2c3c(cccc13)N=N2 | Cyclin-dependent kinase 2/cyclin E (Homo sapiens) (UniProt P24864+P24941+O96020) | Criterion not met
O=c1c2ccccc2[nH]c(=S)n1CCN1CCC(=C(c2ccc(F)cc2)c2ccc(F)cc2)CC1 | Cyclin-dependent kinase 2/cyclin E (Homo sapiens) (UniProt P24864+P24941+O96020) | Criterion met
O=C(O)c1ccc2c3c1cccc3c(=O)n1c3ccccc3nc21 | Cyclin-dependent kinase 2/cyclin E (Homo sapiens) (UniProt P24864+P24941+O96020) | Criterion met
CCC(=O)Nc1ccc2ncnc(Nc3cccc(Br)c3)c2c1 | Cyclin-dependent kinase 2/cyclin E (Homo sapiens) (UniProt P24864+P24941+O96020) | Criterion met
CC(C)n1cnc2/c(=N/c3cccc(Cl)c3)nc(NCCO)[nH]c21 | Cyclin-dependent kinase 2/cyclin E (Homo sapiens) (UniProt P24864+P24941+O96020) | Criterion not met

API: above_or_equal(metric=residual activity, cutoff=60%) for item CC(=O)O/N=C1\C(=C2\C(=O)Nc3cc(Br)ccc32)Nc2ccccc21 Criterion not met

Determine whether this compound has residual activity no lower than 60%: O=C1Nc2ccccc2/C1=C1/Nc2ccccc2/C1=N\OCCC(O)CO (stereo not given) Criterion not met

# check: residual activity of c1ccc(-c2n[nH]cc2-c2ccnc3ccccc23)nc1 is greater than or equal to 60% Criterion met

----------
# target.or.test.system: Mitogen-activated protein kinase kinase kinase 5 (Homo sapiens) (UniProt Q99683)
# Sequence (Q99683 whole entry): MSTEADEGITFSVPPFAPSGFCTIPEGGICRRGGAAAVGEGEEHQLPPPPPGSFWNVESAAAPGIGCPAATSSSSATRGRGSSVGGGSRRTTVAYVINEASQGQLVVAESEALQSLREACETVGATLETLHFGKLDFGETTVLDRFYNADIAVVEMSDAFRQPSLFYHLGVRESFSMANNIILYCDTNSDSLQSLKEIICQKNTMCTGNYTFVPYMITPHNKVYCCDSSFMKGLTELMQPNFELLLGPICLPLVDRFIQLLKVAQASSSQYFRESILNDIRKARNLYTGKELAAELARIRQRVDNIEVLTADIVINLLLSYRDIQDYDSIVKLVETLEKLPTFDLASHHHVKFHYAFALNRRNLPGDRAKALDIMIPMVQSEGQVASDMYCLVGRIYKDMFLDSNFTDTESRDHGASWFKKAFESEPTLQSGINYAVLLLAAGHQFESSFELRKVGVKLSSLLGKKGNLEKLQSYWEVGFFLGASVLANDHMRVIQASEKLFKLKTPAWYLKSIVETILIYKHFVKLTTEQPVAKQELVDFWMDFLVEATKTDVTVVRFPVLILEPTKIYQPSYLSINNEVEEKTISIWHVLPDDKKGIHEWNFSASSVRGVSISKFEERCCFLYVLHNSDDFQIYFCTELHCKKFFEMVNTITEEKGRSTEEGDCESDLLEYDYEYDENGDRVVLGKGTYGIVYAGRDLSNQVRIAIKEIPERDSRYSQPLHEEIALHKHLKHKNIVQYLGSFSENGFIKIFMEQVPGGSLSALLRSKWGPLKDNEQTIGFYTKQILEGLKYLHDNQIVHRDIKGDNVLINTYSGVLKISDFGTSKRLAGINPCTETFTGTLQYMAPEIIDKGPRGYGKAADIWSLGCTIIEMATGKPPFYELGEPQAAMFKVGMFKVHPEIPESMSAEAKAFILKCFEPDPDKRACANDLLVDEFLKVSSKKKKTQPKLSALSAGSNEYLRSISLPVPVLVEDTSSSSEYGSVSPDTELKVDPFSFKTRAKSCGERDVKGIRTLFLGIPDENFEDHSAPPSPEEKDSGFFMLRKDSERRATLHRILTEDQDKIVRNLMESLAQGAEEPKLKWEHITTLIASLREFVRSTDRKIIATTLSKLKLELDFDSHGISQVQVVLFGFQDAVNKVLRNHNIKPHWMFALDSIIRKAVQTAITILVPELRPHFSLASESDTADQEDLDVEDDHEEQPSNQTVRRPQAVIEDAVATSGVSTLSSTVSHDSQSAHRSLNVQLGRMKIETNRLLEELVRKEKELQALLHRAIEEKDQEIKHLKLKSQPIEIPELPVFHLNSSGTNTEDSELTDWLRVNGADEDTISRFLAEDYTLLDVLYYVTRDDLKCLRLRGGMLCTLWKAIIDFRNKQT
# measurement.context: at 10 µM
measure.name: residual activity (%)
Numbers only, in %.

Take a look at these entries with their results.
given.smiles | target.or.test.system | output.unit | residual activity
CC(C)n1cnc2c(NCc3ccccc3)nc(NCCCO)nc21 | Mitogen-activated protein kinase kinase kinase 5 (Homo sapiens) (UniProt Q99683) | % | 102
Cn1cnc2cc3c(Nc4cccc(Br)c4)ncnc3cc21 | Mitogen-activated protein kinase kinase kinase 5 (Homo sapiens) (UniProt Q99683) | % | 107
Oc1n[nH]c2nnc(-c3c(-c4ccccc4)nn4ccccc34)cc12 | Mitogen-activated protein kinase kinase kinase 5 (Homo sapiens) (UniProt Q99683) | % | 105

// input: 6 compounds below; output: residual activity for each
1. CCN(CC)C(=O)c1ccc(Nc2nc(OCC3CCCCC3)c3nc[nH]c3n2)cc1
2. CC(C)n1cnc2/c(=N/c3cccc(Cl)c3)nc(NCCO)[nH]c21
3. COc1cc2ncnc(N3CCN(C(=O)Nc4ccc(Oc5ccccc5)cc4)CC3)c2cc1OC
4. Cc1nc(-c2ccccc2)c(-c2ccncc2)o1
5. Cc1cccc(-c2[nH]c(C(C)(C)C)nc2-c2ccc3c(c2)OCO3)n1
6. CO[C@H]1C[C@@H]2CC[C@@H](C)[C@@](O)(O2)C(=O)C(=O)N2CCCC[C@H]2C(=O)O[C@H]([C@H](C)C[C@@H]2CC[C@@H](O)[C@H](OC)C2)CC(=O)[C@H](C)/C=C(\C)[C@@H](O)[C@@H](OC)C(=O)[C@H](C)C[C@H](C)/C=C/C=C/C=C/1C

1: 24; 2: 86; 3: 67; 4: 85; 5: 88; 6: 96

Okay, here is my list. What is residual activity for each of these?
1. COc1ccc(S(=O)(=O)N(CCO)c2ccccc2CN(C)C/C=C/c2ccc(Cl)cc2)cc1
2. N#Cc1cnc2cnc(NCc3cccnc3)cc2c1Nc1ccc(F)c(Cl)c1
3. O=C1c2ccccc2-[n+]2ccc3c([nH]c4ccccc43)c21
4. Cc1cncc2cccc(S(=O)(=O)N3CCCN(C(=O)CN)C[C@H]3C)c12
5. O=c1cc(-c2cccc3c2Sc2ccccc2S3)oc(N2CCOCC2)c1
6. Nc1ccc2ncnc(NCCc3ccc(Oc4ccccc4)cc3)c2c1
7. COc1cc2ncnc(Nc3ccc(Oc4ccccc4)cc3)c2cc1OC
8. Nc1nc(Nc2ccc(S(N)(=O)=O)cc2)nn1C(=S)Nc1c(F)cccc1F

1: 90; 2: 65; 3: 92; 4: 87; 5: 98; 6: 80; 7: 73; 8: -1

----------
Task for the reader: assign each of the following compounds its reported residual activity.
# target.or.test.system: Protein kinase C beta type (Homo sapiens) (UniProt P05771)
# Sequence (P05771 2-671 limits assumed): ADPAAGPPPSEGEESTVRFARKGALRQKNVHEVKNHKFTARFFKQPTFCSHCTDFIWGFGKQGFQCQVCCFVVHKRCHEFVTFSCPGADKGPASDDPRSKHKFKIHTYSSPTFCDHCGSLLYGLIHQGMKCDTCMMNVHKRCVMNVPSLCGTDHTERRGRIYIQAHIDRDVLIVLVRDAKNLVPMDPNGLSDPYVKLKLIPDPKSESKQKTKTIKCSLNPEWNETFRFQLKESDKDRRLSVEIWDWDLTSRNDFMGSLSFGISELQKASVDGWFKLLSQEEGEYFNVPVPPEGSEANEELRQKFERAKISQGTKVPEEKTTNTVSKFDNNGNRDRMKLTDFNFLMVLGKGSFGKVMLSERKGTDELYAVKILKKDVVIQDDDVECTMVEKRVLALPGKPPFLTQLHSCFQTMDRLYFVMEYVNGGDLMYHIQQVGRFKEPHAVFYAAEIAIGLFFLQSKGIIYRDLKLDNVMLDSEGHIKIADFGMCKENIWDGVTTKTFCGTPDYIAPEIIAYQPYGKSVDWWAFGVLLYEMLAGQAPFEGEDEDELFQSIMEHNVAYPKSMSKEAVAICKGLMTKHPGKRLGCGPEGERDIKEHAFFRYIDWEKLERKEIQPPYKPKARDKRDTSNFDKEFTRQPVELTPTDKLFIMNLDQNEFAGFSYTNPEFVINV
# measurement.context: at 10 µM
One number for each entry, in %.

Worked examples follow.
given.smiles | target.or.test.system | output.unit | residual activity
Cc1cc2ncc(-c3ccccc3)nc2cc1C | Protein kinase C beta type (Homo sapiens) (UniProt P05771) | % | 107
N#CC(C#N)=C(N)/C(C#N)=C/c1ccc(O)cc1 | Protein kinase C beta type (Homo sapiens) (UniProt P05771) | % | 90
O=C(Nc1cccc(Nc2nccc(Nc3cccc(C(F)(F)F)c3)n2)c1)C1CC1 | Protein kinase C beta type (Homo sapiens) (UniProt P05771) | % | 102

Parameters: items (list). Returns: residual activity for each item.
1. COc1ccc(OC)c2c(=S)c3ccccc3[nH]c12
2. COc1cc2ncnc(N3CCN(C(=O)Nc4ccc(Oc5ccccc5)cc4)CC3)c2cc1OC
3. C[C@@H](N)[C@H]1CC[C@H](C(=O)Nc2ccncc2)CC1

1. 97
2. 102
3. 34

----------
# target.or.test.system: Serine/threonine-protein kinase 3 (Homo sapiens)
# Sequence (whole entry): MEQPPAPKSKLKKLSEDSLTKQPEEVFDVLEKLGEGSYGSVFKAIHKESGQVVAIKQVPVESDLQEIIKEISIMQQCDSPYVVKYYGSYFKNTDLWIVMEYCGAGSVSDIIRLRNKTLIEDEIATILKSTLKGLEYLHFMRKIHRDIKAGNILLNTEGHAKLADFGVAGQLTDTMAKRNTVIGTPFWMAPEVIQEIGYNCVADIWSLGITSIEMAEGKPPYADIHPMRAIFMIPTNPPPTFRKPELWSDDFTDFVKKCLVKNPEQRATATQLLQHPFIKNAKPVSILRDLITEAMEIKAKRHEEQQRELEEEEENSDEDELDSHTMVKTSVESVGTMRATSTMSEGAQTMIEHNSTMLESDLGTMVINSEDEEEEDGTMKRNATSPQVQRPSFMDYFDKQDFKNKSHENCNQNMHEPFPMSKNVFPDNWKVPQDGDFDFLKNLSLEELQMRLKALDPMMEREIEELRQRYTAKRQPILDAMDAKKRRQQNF
# measurement.context: at 10 µM
Mark Condition not met for residual activity values under 90%, and Condition met for everything at or above.

given.smiles | class.name
O=C(Nc1cccc(Nc2nccc(Nc3cccc(C(F)(F)F)c3)n2)c1)C1CC1 | Condition not met
COc1cccc(-c2cc(=O)c3ccccc3o2)c1N | Condition met
CC(C)n1cnc2/c(=N/c3cccc(Cl)c3)nc(NCCO)[nH]c21 | Condition not met

API: the following record is the query input.
Form field: residual activity at least 90%? Entry: O=c1cc(-c2cccc3c2Sc2ccccc2S3)oc(N2CCOCC2)c1 Condition met

----------
# target.or.test.system: Protein kinase C epsilon type (Homo sapiens) (UniProt Q02156)
# Sequence (whole entry): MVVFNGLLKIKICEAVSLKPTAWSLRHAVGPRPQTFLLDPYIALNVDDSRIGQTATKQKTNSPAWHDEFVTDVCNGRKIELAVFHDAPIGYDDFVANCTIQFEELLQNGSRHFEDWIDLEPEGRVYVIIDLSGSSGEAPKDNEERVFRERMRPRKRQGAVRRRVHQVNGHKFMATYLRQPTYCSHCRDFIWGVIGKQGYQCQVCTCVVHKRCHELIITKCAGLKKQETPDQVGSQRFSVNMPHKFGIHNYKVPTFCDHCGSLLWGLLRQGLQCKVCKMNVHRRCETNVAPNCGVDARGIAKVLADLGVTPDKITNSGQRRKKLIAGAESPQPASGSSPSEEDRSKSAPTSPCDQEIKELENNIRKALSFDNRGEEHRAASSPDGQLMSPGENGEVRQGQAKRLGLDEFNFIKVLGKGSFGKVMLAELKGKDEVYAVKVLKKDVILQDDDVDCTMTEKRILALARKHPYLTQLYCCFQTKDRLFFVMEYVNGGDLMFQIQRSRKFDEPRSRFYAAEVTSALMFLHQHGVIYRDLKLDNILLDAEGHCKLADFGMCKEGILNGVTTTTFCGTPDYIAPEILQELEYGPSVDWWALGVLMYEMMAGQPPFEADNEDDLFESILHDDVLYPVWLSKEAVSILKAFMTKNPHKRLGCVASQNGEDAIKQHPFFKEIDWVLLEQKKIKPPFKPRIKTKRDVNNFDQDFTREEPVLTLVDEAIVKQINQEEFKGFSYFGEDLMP
# measurement.context: at 10 µM
One threshold, 90%, splits the recorded residual activity values: lower ones are rule met, equal or higher ones are rule not met.

Reference set, count: 5
given.smiles | class.name
CC(=O)O/N=C1\C(=C2\C(=O)Nc3cc(Br)ccc32)Nc2ccccc21 | rule not met
COc1ccc(OC)c2c(=S)c3ccccc3[nH]c12 | rule not met
O=C1NC(=O)/C(=C\c2ccc3nccnc3c2)S1 | rule not met
O=C1NC(=O)/C(=C/c2ccc3c(c2)OC(F)(F)O3)S1 | rule not met
O=C(Nc1cccc(Nc2nccc(Nc3cccc(C(F)(F)F)c3)n2)c1)C1CC1 | rule met

Below 90% on residual activity? Entry NC(=O)c1ccc2[nH]c(-c3ccc(Oc4ccc(Cl)cc4)cc3)nc2c1 rule met

State whether 90% exceeds residual activity recorded for CCN(CC)CCCCN1c2ccccc2Oc2ccc(Cl)cc21 . rule not met

Is the reported residual activity for Nc1n[nH]c2nnc(-c3c(-c4ccccc4)nn4ccccc34)cc12 strictly below 90%? rule met

Say whether its residual activity is strictly beneath 90%. Entry: CC(=O)c1ccc(N2CCOCC2)cc1O rule met

Does Nc1cccc(-c2cc3c(Oc4cccc(O)c4)ncnc3[nH]2)c1 have residual activity strictly under 90%? rule not met

is_below(residual activity, 90%) for Cn1cnc2cc3c(Nc4cccc(Br)c4)ncnc3cc21 ? rule not met

residual activity under 90%? Item: O=C1NC(=O)c2c1c1c3ccccc3[nH]c1c1[nH]c3cc(Br)ccc3c21 rule not met
